B1: glmS ribozyme (parent)
chain: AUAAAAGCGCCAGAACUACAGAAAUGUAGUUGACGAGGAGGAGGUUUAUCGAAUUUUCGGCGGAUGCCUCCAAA

Variants of: B1
Assay: self-cleavage kobs at 40 uM GlcN6P; higher = faster cleavage; RNA array
Settings: with glucosamine-6-phosphate
Fewer inactive variants are shown than the library holds.
recorded_endpoint: self-cleavage kobs at 40 uM GlcN6P

A53C U56C    < 1e-05 s⁻¹
C8G G38U G60U    < 1e-05 s⁻¹
C16G C58G    < 1e-05 s⁻¹
G35C C50G    3.26e-05 s⁻¹
A39G A42U    4.94e-05 s⁻¹
C11U A52U G60C    < 1e-05 s⁻¹
C16U A53G    0.00111 s⁻¹
A14C U31C A39U    2.48e-05 s⁻¹

Enquiry: For U47A A52G , what is its reported self-cleavage kobs at 40 uM GlcN6P?
Return: 3.28e-05 s⁻¹

Enquiry: Endpoint output: self-cleavage kobs at 40 uM GlcN6P of U47A U54G . Value?
Return: 0.0005 s⁻¹

Enquiry: self-cleavage kobs at 40 uM GlcN6P lookup needed for G51C G63A , thanks.
Return: < 1e-05 s⁻¹
